Assay: BSK_4H_SRB: Viability Assessment in the BioMAP Diversity Plus: 4H Assay (AID 2283027);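 also: cells exposed to compound for 24 h before staining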
Conditions: primary human endothelial cells (HUVEC)
Active and inactive are the calls of the source. The calls were made as follows: active = hit-call score of the fitted dose curve at least 0.9, where 1 is the maximum; inactive = score below 0.9.
test-readout: outcome

Worked examples, 7 molecules total:
Tell me the measured outcome of "Nc1cc2c3c(c1)C(c1ccccc1)=N[C@@H](NC(=O)c1cccnc1)C(=O)N3CC2" , please.
inactive

Fill in the blank: the reported outcome of "Cc1c([N+](=O)[O-])cc2c(c1[N+](=O)[O-])C(C)(C)CC2(C)C" is ____.
inactive

Fill in: outcome of "CCOS(=O)(=O)OCC" is ___
inactive

Given the molecule "CCOC(=O)c1ccccc1C(=O)OCC" , what is its reported outcome?
inactive

Request the reported outcome associated with "c1ccc2c(c1)Nc1ccccc1S2"
inactive

Name the reported outcome value associated with the molecule CC(Cl)CN(C)C (stereo not drawn)
inactive

Could you share which outcome value was measured for "CCOP(=S)(S)OCC" ?
inactive

We next turn to a different molecule, shown below.
What value of outcome has been reported for the following molecule? "O=[N+]([O-])c1ccccc1"
inactive

* * *

Read-out: Tissue Factor, F3 (gene 2152)
Assay: BSK_LPS_TissueFactor: BioMAP Diversity Plus: LPS Assay for Tissue Factor Biomarker Activity (AID 2283084)
Conditions: primary human HUVEC with PBMC; actives raise or lower the signal
Protocol: BSK_LPS is a cell-based, multiplexed-readout assay that uses umbilical vein endothelium and peripheral blood mononuclear cells, a human vascular primary cell co-culture, with measurements taken at 24 hours after chemical dosing in a 96-well plate.BSK_LPS_TissueFactor is an assay component measured in the BSK_LPS assay. […] This assay endpoint, BSK_LPS_TissueFactor, was analyzed with bidirectional fitting relative to DMSO as the negative control and baseline of activity. […]
Calls of active or inactive are those of the source. How the source made its calls: active means hit-call score of the fitted dose curve at least 0.9, where 1 is the maximum; inactive means score below 0.9.
Give your call using only these classes: label 1 (active), label 0 (inactive)

A selection of reference data follows.
Record lookup: outcome of this test for "CC(C)Nc1ccc(Nc2ccccc2)cc1" ?
label 1

In this assay, the call recorded for "CN(C)C(=O)Cl" was what?
label 0

What classification did "N#Cc1c(-c2ccc(Cl)cc2)[nH]c(C(F)(F)F)c1Br" end up with in this test?
label 0

Please let me know the test result on file for OCC1CO1 (stereo not drawn) .
label 0

So what was the verdict on "NC(=O)C(F)(F)C(F)(F)F" in this test?
label 0

For "COCCOCCO" , which call appears in the assay record?
label 0

Please let me know the test result on file for "O=S(=O)(F)C(F)(F)C(F)(F)C(F)(F)C(F)(F)C(F)(F)C(F)(F)C(F)(F)C(F)(F)F" .
label 0

Could you please tell me the result logged for "ClC(Cl)=C(c1ccc(Cl)cc1)c1ccccc1Cl" in this assay?
label 1

Next:
So what was the verdict on "N#Cc1cc([N+](=O)[O-])ccc1N" in this test?
label 0

I would be grateful if you could indicate the recorded call for CC(Cc1ccc(OCC(=O)O)cc1)NCC(O)c1csc(C(F)(F)F)n1 (stereo not drawn) .
label 0

Answer briefly: the call reported for "Cc1c([N+](=O)[O-])cc2c(c1[N+](=O)[O-])C(C)(C)CC2(C)C" in this assay.
label 0

Field: outcome | Entry: "CCNc1nc(Cl)nc(NC(C)(C)C)n1"
label 0

Per the assay record, what outcome was assigned to "Nc1ccc([N+](=O)[O-])cc1Cl" ?
label 0

* * *

Read-out: Monocyte Chemoattractant Protein-1 (MCP1), CCL2 (gene 6347)
Test: BSK_LPS_MCP1: BioMAP Diversity Plus: LPS Assay for Monocyte Chemoattractant Protein-1 (MCP1) Biomarker Activity (AID 2283081)
Settings: primary human HUVEC with PBMC; actives raise or lower the signal
The source made the active and inactive calls. The calls were made as follows: active = hit-call score of the fitted dose curve at least 0.9, where 1 is the maximum; inactive = score below 0.9.
Write down the outcome that applies. Available outcomes: Yes (active), No (inactive)

Please share the test call associated with "Cc1ccc(O)cc1C" .
No

Please let me know the test result on file for "COP(N)(=S)OC" .
No

Answer briefly: the call reported for "O=C(O)C=CC(F)(C(F)(F)F)C(F)(F)F" in this assay.
No

Others:
Give the logged outcome of this assay for the following compound: "c1cc2c3c(cccc3c1)CC2"
No

Called result for CCCCC(CC)COP(=O)(Oc1ccccc1)Oc1ccccc1 (configuration not stated)
Yes

Returns: the outcome recorded for "CCOP(=S)(OCC)SCS(=O)(=O)CC" in this assay.
No

Could you check what this test reported for "O=C(O)C(F)(F)OC(F)(F)C(F)(F)OC(F)(F)F" ?
No

* * *

Experiment: APR_HepG2_MitoMass_24hr: Apredica 24-hour HepG2 Assay for Mitochondrial Mass (AID 2282912)
Details: high-content imaging, actives raise or lower the signal
Method: APR_HepG2_24hr is a cell-based, multiplexed-readout assay that uses HepG2, a human liver cell line, with measurements taken at 24 hours after chemical dosing in a 384-well plate.APR_HepG2_MitoMass_24hr is one of 10 assay component(s) measured or calculated from the APR_HepG2_24hr assay. […] This assay endpoint, APR_HepG2_MitoMass_24hr, was analyzed with bidirectional fitting relative to DMSO as the negative control and baseline of activity. […]
Active and inactive are the calls of the source. Rule for the calls: active = hit-call score of the fitted dose curve at least 0.9, where 1 is the maximum; inactive = score below 0.9.
Answer with one of the outcomes true = active, false = inactive

Hey, what did the test say about O=P1(N(CCCl)CCCl)NCCCO1 (stereo not given) ?
false

What classification did CC(Cc1ccc(OCC(=O)O)cc1)NCC(O)c1csc(C(F)(F)F)n1 (stereo not given) end up with in this test?
false

Recorded test call requested for "CCCCc1ccccc1"
false

What is the recorded call for this compound in the test? CCOP(=S)(Oc1ccc([N+](=O)[O-])cc1)c1ccccc1 (stereo not given)
false

Given "CCC(C)(C)c1ccc(O)cc1" , state the outcome it received in this test.
false

Others:
Give the logged outcome of this assay for the following compound: "c1ccc2c(c1)Nc1ccccc1S2"
false

Which result was noted for this compound in the test: "O=[N+]([O-])c1ccc(Cl)c(Cl)c1"
false

For OCC1CO1 (stereo not given) , what call appears in the results of this test?
false

What call does the record list for "COCCOCCO" ?
false

Dear all, I need the recorded test outcome for "O=P(Oc1ccccc1)(Oc1ccccc1)Oc1ccccc1" , thank you.
false

Record lookup: outcome of this test for "ClC(Cl)(Cl)c1ccccc1" ?
false

Assay result, entry "c1cc2c3c(cccc3c1)CC2" — outcome?
false

* * *

Read-out: Vascular endothelial growth factor receptor 2 (Homo sapiens)
Assay: BSK_4H_VEGFRII: BioMAP Diversity Plus: 4H Assay for Vascular endothelial growth factor receptor 2 (VEGFR2) Biomarker Activity (AID 2283031)
Settings: primary human endothelial cells (HUVEC); actives raise or lower the signal
Calls of active or inactive are those of the source. Rule for the calls: active = hit-call score of the fitted dose curve at least 0.9, where 1 is the maximum; inactive = score below 0.9.
Use one of these outcomes when replying: 1 (yes) for active, 0 (no) for inactive

Which outcome did this test record for the compound CCC1(c2ccccc2)C(=O)N=C(O)NC1=O (centres undefined) ?
0 (no)

Now look at this one.
Outcome? "Nc1cc2c3c(c1)C(c1ccccc1)=N[C@@H](NC(=O)c1cccnc1)C(=O)N3CC2"
0 (no)

* * *

Read-out: ABC Transporter (ABCB1), ABCB1 (gene 5243)
Experiment: LTEA_HepaRG_ABCB1: Life Technologies and Expression Analysis (LTEA) Assay for ABC Transporter (ABCB1) using HepaRG (AID 2283460)
Settings: mRNA level, 48 h; actives raise or lower the signal
The source made the active and inactive calls. The calls were made as follows: active = hit-call score of the fitted dose curve at least 0.9, where 1 is the maximum; inactive = score below 0.9.
test-readout: AC50

Some solved entries appear below for comparison.
Any idea what AC50 was measured for "[N-]=[N+]=[N-]" ?
inactive

For "CCCCN(CCCC)N=O" , what is its reported AC50?
inactive

Please look up its AC50: O=P1(N(CCCl)CCCl)NCCCO1 (centres undefined)
inactive

What value of AC50 has been reported for the following compound? "Nc1ccc2ccccc2c1"
inactive

Data request, read-out AC50, for "CCNc1nc(Cl)nc(NC(C)(C)C)n1"
7.02 µM (active)

Please report AC50 for every entry that follows.
1. COCCOCCO
2. CCOP(=S)(OCC)SCSCC
3. CCCN(CCC)c1c([N+](=O)[O-])cc(C(C)C)cc1[N+](=O)[O-]
4. ClC1=C(Cl)C2(Cl)C3C(Cl)C(Cl)CC3C1(Cl)C2(Cl)Cl (centres undefined)

1. inactive
2. inactive
3. 50 µM (active)
4. 6.37 µM (active)

Required: AC50, one value per compound below.
1. CCCCN(CCCC)SN(C)C(=O)Oc1cccc2c1OC(C)(C)C2
2. CCOC(=O)c1ccccc1C(=O)OCC

1. 23.2 µM (active)
2. inactive

Hello, I would appreciate it if you could give AC50 for each entry below.
1. CCCCCCCc1ccc(O)cc1
2. Cc1ccc(N)cc1N
3. CCOP(=S)(Oc1ccc([N+](=O)[O-])cc1)c1ccccc1 (centres undefined)
4. OCC1CO1 (centres undefined)
5. O=P(Oc1ccccc1)(Oc1ccccc1)Oc1ccccc1
6. CC(C)(C)OOC(C)(C)C
7. c1cc2c3c(cccc3c1)CC2
8. Nc1cc2c3c(c1)C(c1ccccc1)=N[C@@H](NC(=O)c1cccnc1)C(=O)N3CC2

["inactive", "inactive", "4.56 µM (active)", "inactive", "5.73 µM (active)", "inactive", "inactive", "18.5 µM (active)"]

Origin of values: PubChem BioAssay (EPA / NIEHS)
